# target.or.test.system: P. falciparum cytosolic lysyl-tRNA synthetase (PfKrs1) (Plasmodium falciparum, UniProt Q8IDJ8)
# Construct: recombinant PF13_0262, codon-optimized, in pET-28a(+), expressed in E. coli and purified
# Sequence (Q8IDJ8 entry or part of it): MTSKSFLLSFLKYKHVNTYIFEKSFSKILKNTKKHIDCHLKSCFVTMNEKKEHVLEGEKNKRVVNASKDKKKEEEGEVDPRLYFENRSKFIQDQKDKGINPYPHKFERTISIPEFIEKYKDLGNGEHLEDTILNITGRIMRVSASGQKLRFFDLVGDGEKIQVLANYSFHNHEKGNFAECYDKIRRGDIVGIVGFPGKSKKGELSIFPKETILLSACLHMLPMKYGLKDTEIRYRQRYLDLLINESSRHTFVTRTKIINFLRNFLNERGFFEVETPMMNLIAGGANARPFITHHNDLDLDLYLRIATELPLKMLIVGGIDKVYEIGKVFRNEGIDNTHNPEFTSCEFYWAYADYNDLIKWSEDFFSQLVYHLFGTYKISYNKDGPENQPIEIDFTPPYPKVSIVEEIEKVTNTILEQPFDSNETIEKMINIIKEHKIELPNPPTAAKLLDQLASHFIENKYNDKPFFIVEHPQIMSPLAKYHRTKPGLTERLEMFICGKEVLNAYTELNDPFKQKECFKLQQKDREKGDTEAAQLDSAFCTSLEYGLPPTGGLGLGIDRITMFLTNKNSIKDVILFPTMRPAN
# measurement.description: Transcreener AMP fluorescence polarization aminoacylation assay with recombinant enzyme
property.measured: IC50 (nM)
Give just the number in nM; leave the unit off.

For C[C@H]1CCC[C@H](C[C@H]2Cc3cc(O)cc(O)c3C(=O)O2)O1 , what is its reported IC50?
61

====

# Test system: Plasmodium falciparum Dd2
# Construct: Dd2
# measurement.description: microbe, parasite or virus in culture
# Set-up: species or system Plasmodium falciparum Dd2 in human erythrocytes; Asexual blood-stage parasite proliferation, SYBR Green I DNA fluorescence
# particulars: DD2, Erythrocyte, 72 h, read-out: IC50 values (nM)
*1 amine or outer side, *2 acyl side, *3 side chain or, on linkers, in order; H or OH if unused. Where a SMILES comes first, the peptide text is derived from it. [ ]: non-standard residue; d: D form. X1 = CC(C)([C@@H]1CO1)n1cc([C@@H](O)[C@H](CC(=O)[*:2])N[*:1])c2ccccc21; NMeLeu(5-OH,4R) = CN[C@@H](C[C@@H](C)CO)C(=O)O; Nle(4R-Me-5-ene) = C=C[C@H](C)C[C@H](N)C(=O)O; Phe(βR-OMe) = CO[C@H](c1ccccc1)[C@H](N)C(=O)O; NMeL = CN[C@@H](CC(C)C)C(=O)O
Parameter IC50: see the listing below.
Numeric answer only, unit nM assumed.

C=C[C@H](C)C[C@@H]1NC(=O)[C@H](CC(C)C)N(C)C(=O)[C@H](C(C)C)NC(=O)[C@H]([C@H](OC)c2ccccc2)NC(=O)[C@H](C)NC(=O)[C@H](C[C@@H](C)CO)N(C)C(=O)C[C@@H]([C@H](O)c2cn(C(C)(C)[C@@H]3CO3)c3ccccc23)NC1=O [CycA, cyclomarin A] (cyclo(A[Phe(βR-OMe)]V[NMeL][Nle(4R-Me-5-ene)][X1][NMeLeu(5-OH,4R)])); 48.8

Quick one: IC50 for O[C@@H](c1cc(C(F)(F)F)nc2c(C(F)(F)F)cccc12)[C@H]1CCCCN1 (racemic) ?
9

Same question for O=C1C(O)=C([C@H]2CC[C@H](c3ccc(Cl)cc3)CC2)C(=O)c2ccccc21 please.
0.8

These data points were gathered from paper PMC3391680.
